Entries annotated with measured Sample B (Probe) Signal
Target: T1, native human ESRRG protein (Estrogen-receptor related receptor gamma) (human, UniProt P62508 229-458, limits assumed)
T1 construct: the screened protein is called 'native human ESRRG protein'; also called ESSRG; ERRγ
T1 sequence (looked up): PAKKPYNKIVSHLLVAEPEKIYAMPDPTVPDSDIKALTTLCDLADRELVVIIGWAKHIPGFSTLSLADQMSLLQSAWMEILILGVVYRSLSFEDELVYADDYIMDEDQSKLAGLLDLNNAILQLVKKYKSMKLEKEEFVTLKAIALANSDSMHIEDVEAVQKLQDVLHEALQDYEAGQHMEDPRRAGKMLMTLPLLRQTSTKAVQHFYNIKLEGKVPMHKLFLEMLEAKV
Experiment: peptide microarray, Iteration 1; bound ESRRG detected with fluorescent anti-ESRRG mAb
Experimental: Screening was carried out typically by hybridization of the protein (1 μg/mL) against the array for 1 h at 4° C.; detection of bound protein was carried out using a fluorescently labeled anti-ESRRG mAb. (Direct labeling of ESRRG and alternative detection strategies are equally valid). […]
Where no end group is shown, it is not given here.

// worked examples, Sample B (Probe) Signal included
Ac-ANNLKLLH; 1670 fluorescence intensity units
Ac-ANNLSLLH; 1220 fluorescence intensity units

What does the record list as Sample B (Probe) Signal for Ac-NSLLKHLL ?
14800 fluorescence intensity units
